- System: CCRF-CEM
- EXPERIMENT DESCRIPTION: In vitro concentration required for 50% inhibition of growth of human leukemia cell line CCRF-CEM with hPAP (0.2 unit/mL)
- Assay type: functional
Reported GI50 is given for each of the following compounds.
Respond numerically; units are nM and should not be typed.

compound=O=c1[nH]c(=O)n([C@H]2C[C@H](O)[C@@H](CO)O2)cc1F measurement_type=GI50 experimental_result=0.6
compound="COC(=O)[C@H](Cc1c[nH]c2ccccc12)NP(=O)(O)OCC1OC(n2cc(F)c(=O)[nH]c2=O)CC1O (some centres undefined)" measurement_type=GI50 experimental_result=0.9
compound="COC(=O)[C@H](Cc1ccccc1)NP(=O)(O)OCC1OC(n2cc(F)c(=O)[nH]c2=O)CC1O (some centres undefined)" measurement_type=GI50 experimental_result=0.8

Value lookup for GI50; key = Nc1ccn([C@@H]2O[C@H](CO)[C@@H](O)[C@@H]2O)c(=O)n1
99.8
